Numbers sourced from PubChem BioAssay.

Assay: CellTiter-Glo luminescent readout of SW480 viability loss, NPC library primary (AID 1117343)
Settings: CellTiter-Glo luminescence; at 20 µM (top of the series)
Entries annotated with measured viability decrease (inhibition)
Your answer should be a plain number; it is taken to be in %.

These recorded examples may help you get a feel for the data.
Nc1ccccc1C(=O)O    11.5
NCC1(CC(=O)O)CCCCC1    -3.2
COC[C@@H](NC(C)=O)C(=O)NCc1ccccc1    -1

Need viability decrease (inhibition) of ClCCN1CCCC1 , thanks.
8.7

Would you kindly share the measured viability decrease (inhibition) for Oc1c(Br)cc(Br)cc1Br ?
32.1

Reported viability decrease (inhibition) for Nc1nc(N)nc(NC2CC2)n1 : what is it?
-5.7

viability decrease (inhibition) lookup needed for NC(=O)OCCCc1ccccc1 , thanks.
-4.9

Entry CNC(C)[C@@H](O)c1ccc(O)cc1 (stereo partly drawn) : reported viability decrease (inhibition) = ?
27.7

What measured viability decrease (inhibition) goes with COc1ccc(C(=O)c2c(C)n(CCN3CCOCC3)c3ccccc23)cc1 ?
65

Which viability decrease (inhibition) value is on record for O=[N+]([O-])O[C@H]1CO[C@H]2[C@@H]1OC[C@H]2O[N+](=O)[O-] ?
10.7

Quick one: viability decrease (inhibition) of Clc1ccc(C(OCCN2CCCCC2)c2ccccc2)cc1 (stereo not drawn) ?
72.3

Data request, read-out viability decrease (inhibition), for CCC(=O)O[C@@H]1C=C2CCC3C(CCC4(C)C3CC[C@@H]4OC(=O)CC)C2CC1 (stereo partly drawn)
13.2

Report viability decrease (inhibition) for COc1ccc(Cc2nccc3cc(OC)c(OC)cc23)cc1OC please.
112
